All values here come from ChEMBL document CHEMBL1201861.

System: CWR22R;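 further: growth inhibition of 22Rv1 cells, read out with a cell viability assay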
Protocol text: cells
Type: functional, cell-based
Experimental conditions: Homo sapiens, 22Rv1
Description: SANGER: Inhibition of human 22RV1 cell growth in a cell viability assay.
Reported metric: IC50

- Compound structure string: "N#C/C(=C1/Nc2ccccc2S1)c1ccnc(NCCc2cccnc2)n1"
  Experimental target: "CWR22R"
  Result: "> 8 µM"
- Compound structure string: "Fc1cc(-c2cc[nH]/c(=N/c3ccc(-n4cnc(N5CCOCC5)n4)cc3)n2)cc(N2CCOCC2)c1"
  Experimental target: "CWR22R"
  Result: "1.01 µM"

Data request: Answer with the recorded IC50 for the molecule listed here: CCCS(=O)(=O)Nc1ccc(F)c(C(=O)c2c[nH]c3ncc(Cl)cc23)c1F
Data returned: > 10 µM

* * *

Measured pIC50 by item
System: SK-MEL-1
Protocol text: cells
Format: functional, cell-based
Experimental conditions: Homo sapiens
Description: SANGER: Inhibition of human SK-MEL-1 cell growth in a cell viability assay.
Value format note: pIC50 is -log10 of concentration (mol/L); just state the number.

Data request: Enter pIC50 (test system SK-MEL-1) for O=c1cc(N2CCOCC2)oc2c(-c3cccc4c3sc3ccccc34)cccc12
Data returned: 5.75

Data request: Enter pIC50 (test system SK-MEL-1) for CO[C@@]12[C@H](COC(N)=O)C3=C(C(=O)C(C)=C(N)C3=O)N1C[C@@H]1N[C@@H]12
Data returned: 5.72

Data request: Enter pIC50 (test system SK-MEL-1) for CC[C@]1(O)C[C@@H]2CN(CCc3c([nH]c4ccccc34)[C@@](C(=O)OC)(c3cc4c(cc3OC)N(C)[C@H]3[C@@](O)(C(=O)OC)[C@H](OC(C)=O)[C@]5(CC)C=CCN6CC[C@]43[C@@H]65)C2)C1;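 further: growth inhibition of human SK-MEL-1 cells, read out by a cell viability assay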
Data returned: 7.17

* * *

Test system: KYSE-520 cell line;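 further: growth inhibition of human KYSE-520 cells, read out with a viability assay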
Protocol text: cells
Assay type: functional, cell-based
Experimental conditions: Homo sapiens
Description: SANGER: Inhibition of human KYSE-520 cell growth in a cell viability assay.
Reported metric: pIC50
Value format note: pIC50 is -log10 of concentration (mol/L); just state the number.

Data request: Answer with the recorded pIC50 for the compound listed here: Fc1cc(-c2cc[nH]/c(=N/c3ccc(-n4cnc(N5CCOCC5)n4)cc3)n2)cc(N2CCOCC2)c1
Data returned: 6.35

Data request: Answer with the recorded pIC50 for the compound listed here: C/C=C(/C)C(=O)O[C@H]1C(C)=C2[C@H]([C@@H]1OC(=O)CCCCCCC)[C@@](C)(OC(C)=O)C[C@H](OC(=O)CCC)[C@@]1(O)[C@H]2OC(=O)[C@@]1(C)O [THAPSIGARGIN]
Data returned: 7.68

* * *

Tested on: MDA-MB-231
Protocol text: cells
Format: functional, cell-based
Experimental conditions: Homo sapiens
Description: SANGER: Inhibition of human MDA-MB-231 cell growth in a cell viability assay.
Measured IC50 by item
State the answer as a number, implicitly in µM.

Examples with answers:
- Molecule: "C/C=C(/C)C(=O)O[C@H]1C(C)=C2[C@H]([C@@H]1OC(=O)CCCCCCC)[C@@](C)(OC(C)=O)C[C@H](OC(=O)CCC)[C@@]1(O)[C@H]2OC(=O)[C@@]1(C)O [THAPSIGARGIN]"
  Experimental target: "MDA-MB-231"
  Numeric value: 0.000557
- Molecule: "C[C@]12O[C@H](C[C@]1(O)CO)n1c3ccccc3c3c4c(c5c6ccccc6n2c5c31)CNC4=O [LESTAURTINIB]"
  Experimental target: "MDA-MB-231"
  Numeric value: 0.586

// next item, IC50 requested
Data request: Enter IC50 (test system MDA-MB-231) for CO[C@@]12[C@H](COC(N)=O)C3=C(C(=O)C(C)=C(N)C3=O)N1C[C@@H]1N[C@@H]12 [MITOMYCIN]
Data returned: 3.24

* * *

Tested on: KYSE-410;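 further: growth inhibition of KYSE-410 cells, measured through a cell viability readout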
Protocol text: cells
Format: functional, cell-based
Experimental conditions: Homo sapiens
Description: SANGER: Inhibition of human KYSE-410 cell growth in a cell viability assay.
Reported metric: pIC50
Value format note: pIC50 is -log10 of concentration (mol/L); just state the number.

- Compound structure string: "C[C@]12O[C@H](C[C@]1(O)CO)n1c3ccccc3c3c4c(c5c6ccccc6n2c5c31)CNC4=O"
  pIC50: 5.85

// next item, pIC50 requested
Data request: Answer with the recorded pIC50 for the compound listed here: CC[C@]1(O)C[C@@H]2CN(CCc3c([nH]c4ccccc34)[C@@](C(=O)OC)(c3cc4c(cc3OC)N(C)[C@H]3[C@@](O)(C(=O)OC)[C@H](OC(C)=O)[C@]5(CC)C=CCN6CC[C@]43[C@@H]65)C2)C1
Data returned: 8.03

* * *

Measured pIC50 by item
Tested on: SK-N-AS;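 further: growth inhibition of human SK-N-AS cells, measured with a cell viability assay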
Protocol text: cells
Format: functional, cell-based
Experimental conditions: Homo sapiens
Description: SANGER: Inhibition of human SK-N-AS cell growth in a cell viability assay.
Value format note: pIC50 is -log10 of concentration (mol/L); just state the number.

- Compound structure string: "CC(=O)c1c(C)c2cnc(Nc3ccc(N4CCNCC4)cn3)nc2n(C2CCCC2)c1=O"
  Experimental target: "SK-N-AS"
  Numeric value: 6.41
- Compound structure string: "O=c1cc(N2CCOCC2)oc2c(-c3cccc4c3sc3ccccc34)cccc12"
  Experimental target: "SK-N-AS"
  Numeric value: 6.21

Data request: Answer with the recorded pIC50 for the molecule listed here: CO[C@@]12[C@H](COC(N)=O)C3=C(C(=O)C(C)=C(N)C3=O)N1C[C@@H]1N[C@@H]12
Data returned: 5.75

Data request: Answer with the recorded pIC50 for the molecule listed here: O=C(CCCCCCC(=O)Nc1ccccc1)NO
Data returned: 6.01

* * *

System: NKM-1
Protocol text: cells
Type: functional, cell-based
Experimental conditions: Homo sapiens
Description: SANGER: Inhibition of human NKM-1 cell growth in a cell viability assay.
Reported metric: IC50

Examples with answers:
- Compound: "CC(O)(CS(=O)(=O)c1ccc(F)cc1)C(=O)Nc1ccc(C#N)c(C(F)(F)F)c1 (stereo unspecified) [BICALUTAMIDE]"
  IC50: "> 1020 nM"
- Compound: "Cc1n[nH]c2ccc(-c3cncc(OC[C@@H](N)Cc4c[nH]c5ccccc45)c3)cc12 [A-443654]"
  IC50: "> 1020 nM"
- Compound: "CCn1c(-c2nonc2N)nc2cnc(Oc3cccc(NC(=O)c4ccc(OCCN5CCOCC5)cc4)c3)cc21 [GSK-269962A]"
  IC50: "> 2500 nM"
- Compound: "CC[C@@]1(O)C(=O)OCc2c1cc1n(c2=O)Cc2cc3ccccc3nc2-1 [CAMPTOTHECIN]"
  IC50: "0.441 nM"
- Compound: "CO[C@@]12[C@H](COC(N)=O)C3=C(C(=O)C(C)=C(N)C3=O)N1C[C@@H]1N[C@@H]12 [MITOMYCIN]"
  IC50: "< 62.5 nM"

Data request: Answer with the recorded IC50 for the compound listed here: COc1cc(C)c(Sc2cnc(NC(=O)c3ccc(CNC(C)C(C)(C)C)cc3)s2)cc1C(=O)N1CCN(C(C)=O)CC1 (stereo unspecified)
Data returned: 10100 nM

* * *

Measured pIC50 by item
Test system: C3A;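 further: growth inhibition of C3A human cells, quantified with a cell viability readout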
Protocol text: cells
Format: functional, cell-based
Experimental conditions: Homo sapiens
Description: SANGER: Inhibition of human C3A cell growth in a cell viability assay.
pIC50: −log10 of the molar value.

Examples with answers:
- Compound structure string: "O=c1cc(N2CCOCC2)oc2c(-c3cccc4c3sc3ccccc34)cccc12"
  pIC50: "< 5.70"
- Compound structure string: "C[C@]1(c2nc3c(C(N)=O)cccc3[nH]2)CCCN1"
  pIC50: "< 5.30"
- Compound structure string: "Cn1c(=O)n(-c2ccc(C(C)(C)C#N)cc2)c2c3cc(-c4cnc5ccccc5c4)ccc3ncc21"
  pIC50: "< 5.70"

// next item, pIC50 requested
Data request: Answer with the recorded pIC50 for the molecule listed here: NC(=O)c1ncn([C@@H]2O[C@H](COP(=O)(O)O)[C@@H](O)[C@H]2O)c1N
Data returned: < 2.70

* * *

Measured IC50 by item
Test system: LB2241-RCC;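 further: cell viability assay measuring how strongly the cultured human renal carcinoma line is prevented from growing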
Protocol text: cells
Type: functional, cell-based
Experimental conditions: Homo sapiens
Description: SANGER: Inhibition of human LB2241-RCC cell growth in a cell viability assay.

Examples with answers:
- Compound structure string: "Cc1[nH]c(/C=C2\\C(=O)Nc3ccc(S(=O)(=O)Cc4c(Cl)cccc4Cl)cc32)c(C)c1C(=O)N1CCC[C@@H]1CN1CCCC1"
  Result: "0.157 µM"
- Compound structure string: "CC(C)=CC[C@@H](O)C1=CC(=O)c2c(O)ccc(O)c2C1=O"
  Result: "1.29 µM"
- Compound structure string: "N#C/C(=C1/Nc2ccccc2S1)c1ccnc(NCCc2cccnc2)n1"
  Result: "> 8 µM"
- Compound structure string: "CCNC(=O)c1noc(-c2cc(C(C)C)c(O)cc2O)c1-c1ccc(CN2CCOCC2)cc1"
  Result: "0.0364 µM"
- Compound structure string: "Cc1nc(Nc2ncc(C(=O)Nc3c(C)cccc3Cl)s2)cc(N2CCN(CCO)CC2)n1"
  Result: "> 1.28 µM"

Data request: Answer with the recorded IC50 for the compound listed here: CCNc1cc(N[C@H]2CC[C@@H](O)CC2)nc(Nc2ccc3c(ccn3Cc3ccccc3)c2)n1
Data returned: > 5.12 µM

* * *

Tested on: HT-144
Protocol text: cells
Assay type: functional, cell-based
Experimental conditions: Homo sapiens
Description: SANGER: Inhibition of human HT-144 cell growth in a cell viability assay.
Reported metric: IC50

- Molecule: "CCn1c(-c2nonc2N)nc2cnc(Oc3cccc(NC(=O)c4ccc(OCCN5CCOCC5)cc4)c3)cc21 [GSK-269962A]"
  Reported metric: "IC50"
  Result: "> 2.5 µM"
- Molecule: "CO[C@@]12[C@H](COC(N)=O)C3=C(C(=O)C(C)=C(N)C3=O)N1C[C@@H]1N[C@@H]12"
  Reported metric: "IC50"
  Result: "0.0238 µM"

// next item, IC50 requested
Data request: Answer with the recorded IC50 for the molecule listed here: Cn1cc(/C=C2\C(=O)Nc3cccnc32)c2ccccc21
Data returned: > 2 µM
